test system: S. exigua larvae; test: Feeding toxicity, leaf-dipping method; format: in vivo, Spodoptera exigua; conditions: median lethal concentration by Probit analysis, leaf-dipping
Record form. Attribute: Insecticidal Activities, Feeding. Fill in for each entry.

Would you please look over these solved cases?
compound: CCOc1cc(O)ccc1OC
result type: Insecticidal Activities, Feeding
result: 2100.34 ± 40.19 f µg/mL

compound: N#Cc1ccccc1C(=O)O
result type: Insecticidal Activities, Feeding
result: 2850.65 ± 80.68 c µg/mL

compound: CCCCC(CC)CO (centres unmarked)
result type: Insecticidal Activities, Feeding
result: 2456.35 ± 50.88 e µg/mL

compound: CCCCNCCCC
result type: Insecticidal Activities, Feeding
result: 2969.46 ± 50.56 c µg/mL

compound: O=C1NC(=O)c2ccccc21 [PM, phthalimide]
result type: Insecticidal Activities, Feeding
result: 2150.66 ± 50.07 f µg/mL

For every item in the list below, what is its measured Insecticidal Activities, Feeding?
1. CCCCCCCCOC(=O)c1ccc(C(=O)OCCCCCCCC)cc1 [DOTP, dioctyl terephthalate]
2. CCCCC(CC)COC(=O)c1ccccc1C(=O)OCC(CC)CCCC (centres unmarked) [BEP, bis(2-ethylhexyl) phthalate]

Ans:
1: 3220.45 ± 90.91 b µg/mL; 2: 2679.58 ± 60.58 µg·days/mL

Q: Please look up its Insecticidal Activities, Feeding: CCCCCCCCCCCCCCCCCCCCCC
Ans: 3554.0 ± 100.18 a µg/mL

---

system: Sf9 cells; assay: Cytotoxicity test (MTT); assay type: cell-based; details: MTT, 24 h at 28 °C
Record form. Attribute: Cytotoxicity (MIC, minimum inhibitory concentration). Fill in for each entry.

Would you please look over these solved cases?
compound: N#Cc1ccccc1C(=O)O
result: 0.50 ± 0.02 c µg/mL
//
compound: CCCCC(CC)CO (centres unmarked)
result: 0.20 ± 0.02 e µg/mL

For every item in the list below, what is its measured Cytotoxicity (MIC, minimum inhibitory concentration)?
1. CCCCC(CC)COC(=O)c1ccccc1C(=O)OCC(CC)CCCC (centres unmarked) [BEP, bis(2-ethylhexyl) phthalate]
2. CCCCNCCCC
3. O=C1NC(=O)c2ccccc21 [PM, phthalimide]

Ans:
0.30 ± 0.01 d ^3 µg/mL
0.80 ± 0.03 b µg/mL
0.1 ± 0.01 f µg/mL

For every item in the list below, what is its measured Cytotoxicity (MIC, minimum inhibitory concentration)?
1. CCCCCCCCCCCCCCCCCCCCCC
2. CCCCCCCCOC(=O)c1ccc(C(=O)OCCCCCCCC)cc1 [DOTP, dioctyl terephthalate]
3. CCOc1cc(O)ccc1OC

Ans:
1.0 ± 0.03 a µg/mL
0.50 ± 0.01 c µg/mL
0.1 ± 0.01 f µg/mL

---

tested on: hemocyte nodule formation; assay: Nodulation assay after E. coli injection in L5 larvae; assay type: in vivo, Spodoptera exigua; details: injected into L5 larvae with E. coli, nodules counted after 8 h
result type: Median Inhibitory Concentration (IC50), Nodulation

Would you please look over these solved cases?
compound: CCCCCCCCCCCCCCCCCCCCCC
target under test: hemocyte nodule formation
result: 1.11 ± 0.09 b ng/larva
--
compound: O=C1NC(=O)c2ccccc21 [PM, phthalimide]
target under test: hemocyte nodule formation
result: 0.20 ± 0.02 f ng/larva

For every item in the list below, what is its measured Median Inhibitory Concentration (IC50), Nodulation?
1. CCCCNCCCC
2. CCCCC(CC)CO (centres unmarked)
3. N#Cc1ccccc1C(=O)O
4. CCCCC(CC)COC(=O)c1ccccc1C(=O)OCC(CC)CCCC (centres unmarked) [BEP, bis(2-ethylhexyl) phthalate]
5. CCCCCCCCOC(=O)c1ccc(C(=O)OCCCCCCCC)cc1 [DOTP, dioctyl terephthalate]
6. CCOc1cc(O)ccc1OC

Ans:
1: 0.71 ± 0.05 d ng/larva; 2: 0.40 ± 0.03 e ng/larva; 3: 2.50 ± 0.22 a ng/larva; 4: 1.0 ± 0.11 c ng/larva; 5: 1.10 ± 0.07 b ng/larva; 6: 0.20 ± 0.02 f ng/larva

All figures here come from paper PMC7469199.
